# Method Notes: Clearance in Sprague-Dawley rat at 0.25 mg/kg, iv in DMSO vehicle
# Type: ADME, organism-based
# Parameters: dose 0.25 mg/kg, route intravenous
# Assay Conditions: in vivo
Measurement Type: clearance (mL/min/kg)
Give just the numeric value; mL/min/kg need not be written.

For the compound COc1cnc2c(NCc3nnc4ccc(-c5cc(F)cc(F)c5)nn34)ccnc2c1 , report clearance. 0.717

###

# Method Notes: Plasma protein binding in mouse at 5 ug/ml
# Format: ADME, cell-free
# Assay Conditions: read-out: PPB (converted)
Measurement Type: fraction unbound at 5 ug/ml
Reply: number alone, nothing else.

Supply reported fraction unbound at 5 ug/ml belonging to this compound: COc1cnc2c(NCc3nnc4ccc(-c5cc(F)cc(F)c5)nn34)ccnc2c1 0.023

###

# Assay Target: Hepatocyte growth factor receptor (Homo sapiens)
Measurement Type: IC50 (nM)
Output spec: scalar in nM, unitless text.

For Hepatocyte growth factor receptor (Homo sapiens), give IC50 of the listed compound: COc1ccc2c(OCc3nnc4ccc(-c5cc(F)c(F)c(F)c5)nn34)ccnc2c1 5

###

# Assay Target: CYP3A4 (Homo sapiens, UniProt P08684)
# Method Notes: Selective ratio of human CYP3A4 IC50 to human CYP3A4 IC50 with pre-incubation
# Format: ADME
# Assay Conditions: read-out: Ratio IC50
Measurement Type: IC50 shift

Here's what some known entries look like.
Query Smiles | Measurement Type | Val
COc1ccc2c(OCc3nnc4ccc(-c5cc(F)c(F)c(F)c5)nn34)ccnc2c1 | IC50 shift | 14
COc1ccc2c(SCc3nnc4ccc(-c5ccccc5)nn34)ccnc2c1 | IC50 shift | 0.64

As a next step, examine the molecule that follows.
Name the recorded IC50 shift of the molecule listed here: COc1ccc2c(NCc3nnc4ccc(-c5ccccc5)nn34)ccnc2c1 > 1

###

# Method Notes: Half life in Sprague-Dawley rat at 0.25 mg/kg, iv in DMSO vehicle
# Format: ADME, organism-based
# Set-up: dose 0.25 mg/kg, route intravenous
# Assay Conditions: in vivo
Measurement Type: half-life (h)
I only need the number, in h, no unit after it.

Tell me its half-life given COc1cnc2c(NCc3nnc4ccc(-c5cc(F)cc(F)c5)nn34)ccnc2c1 as the entry. 3.84

###

# Assay Target: Cytochrome P450 3A4 (Homo sapiens)
# Method Notes: Inhibition of human CYP3A4 in human liver microsomes preincubated with NADPH
# Assay type: ADME, Microsome
Returns: string. Value is true if measured IC50 is below 9 µM, and false if it is greater than or equal to it.

Query Smiles | Label Value
COc1ccc2c(OCc3nnc4ccc(-c5cc(F)c(F)c(F)c5)nn34)ccnc2c1 | true

Is IC50 strictly under 9 µM for the entry COc1cnc2c(NCc3nnc4ccc(-c5cc(F)cc(F)c5)nn34)ccnc2c1 ? false

Please check: IC50 for COc1ccc2c(OCc3nnc4ccc(-c5cc(F)cc(F)c5)nn34)ccnc2c1 , strictly under 9 µM or not? true

Regarding COc1ccc2c(OCc3nnc4ccc(-c5ccc(F)c(F)c5)nn34)ccnc2c1 , kindly confirm whether its IC50 is beneath 9 µM. true

For this compound, is IC50 lower than 9 µM? COc1ccc2c(O[C@@H](C)c3nnc4ccc(-c5ccccc5)nn34)ccnc2c1 true

For COc1cnc2c(NCc3nnc4ccc(-c5cc(C)ns5)nn34)ccnc2c1 , is the recorded IC50 below the cut-off of 9 µM? false

Does the reported IC50 of COc1ccc2c(NCc3nnc4ccc(-c5ccccc5)nn34)ccnc2c1 stay below 9 µM? false

Strictly below 9 µM: is that where IC50 of COc1ccc2c(SCc3nnc4ccc(-c5ccccc5)nn34)ccnc2c1 sits? true

For this compound, is IC50 lower than 9 µM? COc1cnc2c(NCc3nnc4ccc(-c5cc(F)c(F)c(F)c5)nn34)ccnc2c1 false

Dear reviewer, please state whether COc1ccc2c(OCc3nnc4ccc(-c5cc(C)ns5)nn34)ccnc2c1 has IC50 strictly beneath 9 µM. true

###

# Method Notes: AUC (0 to infinity) in Sprague-Dawley rat at 2 mg/kg, po
# Format: ADME, organism-based
# Set-up: time infinity, dose 2 mg/kg, route oral
# Assay Conditions: plasma
Measurement Type: AUC(0-inf) (ng·h/mL)
Write down the numeric answer in ng·h/mL and omit the unit.

// fetch AUC(0-inf) given entry COc1cnc2c(NCc3nnc4ccc(-c5cc(C)ns5)nn34)ccnc2c1 3500

Fill in reported AUC(0-inf) for this entry: COc1cnc2c(NCc3nnc4ccc(-c5cc(F)cc(F)c5)nn34)ccnc2c1 31100

###

# Method Notes: Volume of distribution at steady state in Sprague-Dawley rat at 0.25 mg/kg, iv in DMSO vehicle
# Format: ADME, organism-based
# Set-up: dose 0.25 mg/kg, route intravenous
# Assay Conditions: in vivo, read-out: Vdss
Measurement Type: Vd

Provide Vd value for the following molecule: COc1cnc2c(NCc3nnc4ccc(-c5cc(F)cc(F)c5)nn34)ccnc2c1 0.201 L/kg

###

# Method Notes: Half life in Sprague-Dawley rat at 0.25 mg/kg, iv in 20% hydroxypropyl beta-cyclodextrin in water pH 3.5 w/MSA vehicle
# Type: ADME, organism-based
# Design: dose 0.25 mg/kg, route intravenous
# Assay Conditions: in vivo
Measurement Type: half-life (h)
Just the number in h, nothing appended.

Give half-life for COc1cnc2c(NCc3nnc4ccc(-c5cc(C)ns5)nn34)ccnc2c1 1.76

###

# Assay Target: Cytochrome P450 3A4 (Homo sapiens, UniProt P08684)
# Method Notes: Inhibition of human CYP3A4
# Format: ADME
Listed next: entries and their corresponding pIC50.
In textbook form, pIC50 equals minus log to base ten of the concentration in mol/L.

Here is how some compounds turned out for pIC50.
Query Smiles | Assay Target | Measurement Type | Val
COc1ccc2c(O[C@H](C)c3nnc4ccc(-c5ccccc5)nn34)ccnc2c1 | Cytochrome P450 3A4 (Homo sapiens, UniProt P08684) | pIC50 | 4.74
COc1ccc2c(SCc3nnc4ccc(-c5ccccc5)nn34)ccnc2c1 | Cytochrome P450 3A4 (Homo sapiens, UniProt P08684) | pIC50 | 5.35

Now look at this entry.
Supply reported pIC50 belonging to this compound: COc1ccc2c(OCc3nnc4ccc(-c5cc(C)ns5)nn34)ccnc2c1 4.77

###

# Method Notes: Oral bioavailability in Sprague-Dawley rat at 2 mg/kg
# Format: ADME, organism-based
# Assay Conditions: in vivo
Measurement Type: bioavailability (%)
The answer is to be given in %; state only the numeric part.

Query Smiles | Val
COc1cnc2c(NCc3nnc4ccc(-c5cc(F)cc(F)c5)nn34)ccnc2c1 | 62

Turning to the following compound.
Entry COc1cnc2c(NCc3nnc4ccc(-c5cc(C)ns5)nn34)ccnc2c1 needs its bioavailability filled in; supply it. 30.5

###

# Assay Target: Cytochrome P450 3A4 (Homo sapiens, UniProt P08684)
# Method Notes: Inhibition of human CYP3A4
# Assay type: ADME
IC50 values for the compounds below.
# unit: µM | format: bare number

Query Smiles | Assay Target | Val
COc1ccc2c(OCc3nnc4ccc(-c5cc(F)c(F)c(F)c5)nn34)ccnc2c1 | Cytochrome P450 3A4 (Homo sapiens, UniProt P08684) | 29

Name the recorded IC50 of the item COc1ccc2c(O[C@@H](C)c3nnc4ccc(-c5ccccc5)nn34)ccnc2c1 in your answer. 14

###

# Method Notes: Intrinsic clearance in mouse liver microsomes
# Format: ADME, Microsome
Measurement Type: microsomal CLint

Query Smiles | microsomal CLint
COc1cnc2c(NCc3nnc4ccc(-c5cc(F)cc(F)c5)nn34)ccnc2c1 | 49 µL/min/mg

For the next question, use this compound.
Write down microsomal CLint measured for item COc1cnc2c(NCc3nnc4ccc(-c5cc(C)ns5)nn34)ccnc2c1 60 µL/min/mg

###

# Method Notes: Volume of distribution at steady state in Sprague-Dawley rat at 0.25 mg/kg, iv in 20% hydroxypropyl beta-cyclodextrin in water pH 3.5 w/MSA vehicle
# Assay type: ADME, organism-based
# Design: dose 0.25 mg/kg, route intravenous
# Assay Conditions: in vivo, read-out: Vdss
Measurement Type: Vd (L/kg)
Kindly provide the numeric value in L/kg only, without the unit symbol.

Quickly give me recorded Vd for COc1cnc2c(NCc3nnc4ccc(-c5cc(C)ns5)nn34)ccnc2c1 0.303

###

The entries below are paired with their reported pKi.
# Assay Target: Voltage-gated inwardly rectifying potassium channel KCNH2 (Homo sapiens, UniProt Q12809)
# Method Notes: Inhibition of human ERG
Scale: pKi equals -log10([C]), with [C] in mol/L.

Query Smiles | pKi
COc1cnc2c(NCc3nnc4ccc(-c5cc(C)ns5)nn34)ccnc2c1 | 5.80

Read the next record carefully.
Report pKi for COc1cnc2c(NCc3nnc4ccc(-c5cc(F)cc(F)c5)nn34)ccnc2c1 6.70

###

# Method Notes: Clearance in Sprague-Dawley rat at 0.25 mg/kg, iv in 20% hydroxypropyl beta-cyclodextrin in water pH 3.5 w/MSA vehicle
# Assay type: ADME, organism-based
# Parameters: dose 0.25 mg/kg, route intravenous
# Assay Conditions: in vivo
Measurement Type: clearance (mL/min/kg)
Numbers only; they are read as mL/min/kg.

Specify reported clearance for the molecule shown: COc1cnc2c(NCc3nnc4ccc(-c5cc(C)ns5)nn34)ccnc2c1 3.08
